Every entry's value here was drawn from ChEMBL document CHEMBL3286311.

# Assayed target: Sodium-dependent serotonin transporter (Homo sapiens)
# Sequence (P31645 whole entry): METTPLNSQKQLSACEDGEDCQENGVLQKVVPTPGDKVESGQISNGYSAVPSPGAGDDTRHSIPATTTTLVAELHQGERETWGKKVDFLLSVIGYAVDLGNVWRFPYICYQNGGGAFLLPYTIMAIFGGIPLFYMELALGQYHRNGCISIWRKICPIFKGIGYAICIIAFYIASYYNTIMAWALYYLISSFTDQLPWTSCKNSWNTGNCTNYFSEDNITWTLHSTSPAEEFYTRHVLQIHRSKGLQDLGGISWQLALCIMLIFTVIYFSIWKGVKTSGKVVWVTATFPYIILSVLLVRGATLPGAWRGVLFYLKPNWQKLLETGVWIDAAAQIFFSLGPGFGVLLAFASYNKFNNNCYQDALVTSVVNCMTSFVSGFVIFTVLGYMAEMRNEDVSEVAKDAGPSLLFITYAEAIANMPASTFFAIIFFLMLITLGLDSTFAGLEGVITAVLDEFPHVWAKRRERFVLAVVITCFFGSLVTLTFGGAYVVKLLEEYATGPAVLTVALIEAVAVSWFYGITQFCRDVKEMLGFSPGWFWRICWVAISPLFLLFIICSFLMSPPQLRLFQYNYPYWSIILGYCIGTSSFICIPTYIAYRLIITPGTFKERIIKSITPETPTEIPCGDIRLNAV
# Test name: Displacement of [3H]-S-citalopram from human SERT expressed in African green monkey COS7 cells incubated for 10 mins prior to [3H]-S-citalopram addition measured after 2 hrs by scintillation counting analysis
# Assay type: cell-based, COS-7
Result type: Ki (nM)

Smiles entry	Ki (nM)
CCN(CC)c1ccc2c(-c3ccc(S(=O)(=O)NCCCCCC(=O)NCCCN(C)CCC[C@@]4(c5ccc(F)cc5)OCc5cc(C#N)ccc54)cc3S(=O)(=O)[O-])c3ccc(=[N+](CC)CC)cc-3oc2c1	11

a: CCN(CC)c1ccc2c(-c3ccc(S(=O)(=O)NCCCCCC(=O)NCCCc4ccc5c(c4)CO[C@@]5(CCCN(C)C)c4ccc(F)cc4)cc3S(=O)(=O)[O-])c3ccc(=[N+](CC)CC)cc-3oc2c1
b: CCN(CC)c1ccc2c(-c3ccc(S(=O)(=O)NCCCCCC(=O)NCCCCCN(C)CCC[C@@]4(c5ccc(F)cc5)OCc5cc(C#N)ccc54)cc3S(=O)(=O)[O-])c3ccc(=[N+](CC)CC)cc-3oc2c1
c: CCN(CC)c1ccc2c(-c3ccc(S(=O)(=O)NCCCCCC(=O)NCc4ccc5c(c4)CO[C@@]5(CCCN(C)C)c4ccc(F)cc4)cc3S(=O)(=O)[O-])c3ccc(=[N+](CC)CC)cc-3oc2c1
Reorder: Ki, max to min. Respond with the label ranking, as requested.
b, a, c
(b: 180 nM, a: 11 nM, c: 3 nM)

###

# Assayed target: Sodium-dependent noradrenaline transporter (Homo sapiens, UniProt P23975)
# Sequence (P23975 whole entry): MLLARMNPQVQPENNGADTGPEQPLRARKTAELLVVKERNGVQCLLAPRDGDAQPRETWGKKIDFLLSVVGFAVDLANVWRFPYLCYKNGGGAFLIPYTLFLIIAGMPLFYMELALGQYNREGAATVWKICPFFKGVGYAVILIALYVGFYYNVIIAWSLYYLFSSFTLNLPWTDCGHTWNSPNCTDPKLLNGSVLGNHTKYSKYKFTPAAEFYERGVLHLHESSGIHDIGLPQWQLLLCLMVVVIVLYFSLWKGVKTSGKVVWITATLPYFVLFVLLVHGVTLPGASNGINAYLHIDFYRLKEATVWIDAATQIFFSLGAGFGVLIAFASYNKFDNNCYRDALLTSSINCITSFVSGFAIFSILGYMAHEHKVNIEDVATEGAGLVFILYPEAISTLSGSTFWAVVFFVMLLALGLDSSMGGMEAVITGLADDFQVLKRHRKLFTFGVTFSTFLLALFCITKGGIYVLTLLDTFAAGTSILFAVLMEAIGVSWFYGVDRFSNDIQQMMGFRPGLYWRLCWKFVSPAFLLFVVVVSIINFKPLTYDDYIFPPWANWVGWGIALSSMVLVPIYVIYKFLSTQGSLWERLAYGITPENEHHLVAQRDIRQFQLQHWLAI
# Test name: Inhibition of 2,5,6-[3H]-dopamine uptake at human NET expressed in African green monkey COS7 cells incubated for 10 mins prior to radioligand addition measured after 5 mins by scintillation counting analysis
# Assay type: cell-based, COS-7
Result type: Ki (nM)
All answers are understood in nM, so give the number only.

Entry CCN(CC)c1ccc2c(-c3ccc(S(=O)(=O)NCCCCCC(=O)NCCN4C5CCC4[C@@H](C(=O)OC)[C@@H](c4ccc(Cl)c(Cl)c4)C5)cc3S(=O)(=O)[O-])c3ccc(=[N+](CC)CC)cc-3oc2c1 (stereo partly specified) has what Ki?
91

###

# Assayed target: Sodium-dependent serotonin transporter (Homo sapiens)
# Test name: Inhibition of 5-hydroxy[3H]tryptamine uptake at human SERT expressed in African green monkey COS7 cells incubated for 10 mins prior to radioligand addition measured after 5 mins by scintillation counting analysis
# Assay type: cell-based, COS-7
pKi: −log10 of the molar value.
Result type: pKi

Below, each entry is followed by its recorded pKi result.
Compound	pKi
CCN(CC)c1ccc2c(-c3ccc(S(=O)(=O)NCCCCCC(=O)NCCCc4ccc5c(c4)CO[C@@]5(CCCN(C)C)c4ccc(F)cc4)cc3S(=O)(=O)[O-])c3ccc(=[N+](CC)CC)cc-3oc2c1	7.43
CCN(CC)c1ccc2c(-c3ccc(S(=O)(=O)NCCCCCC(=O)NCCN4C5CCC4[C@@H](C(=O)OC)[C@@H](c4ccc(Cl)c(Cl)c4)C5)cc3S(=O)(=O)[O-])c3ccc(=[N+](CC)CC)cc-3oc2c1 (stereo not given in full)	7.03

A: CCN(CC)c1ccc2c(-c3ccc(S(=O)(=O)NCCCCCC(=O)NCc4ccc5c(c4)CO[C@@]5(CCCN(C)C)c4ccc(F)cc4)cc3S(=O)(=O)[O-])c3ccc(=[N+](CC)CC)cc-3oc2c1
B: CCN(CC)c1ccc2c(-c3ccc(S(=O)(=O)NCCCCCC(=O)NCCCCCN(C)CCC[C@@]4(c5ccc(F)cc5)OCc5cc(C#N)ccc54)cc3S(=O)(=O)[O-])c3ccc(=[N+](CC)CC)cc-3oc2c1
C: CCN(CC)c1ccc2c(-c3ccc(S(=O)(=O)NCCCCCC(=O)NCCCN(C)CCC[C@@]4(c5ccc(F)cc5)OCc5cc(C#N)ccc54)cc3S(=O)(=O)[O-])c3ccc(=[N+](CC)CC)cc-3oc2c1
Hey, can you sort those compounds up there by pKi, smallest first? Respond with the label ranking, as requested.
B, C, A
(B: 6.60, C: 6.85, A: 7.47)
